- Tested on: SN12C renal
- Method description: NCI tumour cell line growth inhibition, 48 h
compounds and their reported TGI
Test readout: TGI

1) CC(=O)CC(=O)OC1CC(C)CCC1C(C)C (stereo not given) = > 100 µM
2) CN[C@@H](C)C(=O)N[C@H](C(=O)N1CCC[C@H]1C(=O)Nc1snnc1-c1ccccc1)C1CCCCC1 = > 100 µM
3) O=S1(=O)N=C(SCc2ccccc2)N(c2ccccc2)c2ccncc21 = > 100 µM
4) Cn1c2ccccc2n2c(N=O)c(-c3ccccc3)nc12 = > 100 µM
5) CN(CCCCCl)P(=O)(OCc1ccc([N+](=O)[O-])o1)OC[C@H]1O[C@@H](n2cc(F)c(=O)[nH]c2=O)C[C@@H]1O (stereo not given in full) = 9.07 µM

###

- Tested on: MDA-MB-231 breast
- Method description: NCI tumour cell line growth inhibition, 48 h
*1 amine or outer side, *2 acyl side, *3 side chain or, on linkers, in order; H or OH if unused. Where a SMILES comes first, the peptide text is derived from it. [ ]: non-standard residue; d: D form. The star is where a group is joined. X31 = CC(=O)N(C)SCC(N[*:1])C(=O)[*:2]; Cbz = O=C(OCc1ccccc1)*; Bn = c1ccc(C*)cc1; For = O=C*
Recorded TGI, one value per entry.
Test readout: TGI

1) C=CCOc1cccc(C2(O)c3ccccc3C3=NCCCN32)c1 (stereo not drawn) = > 100 µM
2) CC[C@]1(Cc2ccc(OC)c(OC)c2)C=[N+]([O-])O[C@H](OC2CCCC2(c2ccccc2)c2ccccc2)[C@@H]1OC(=O)c1ccccc1 (stereo partly drawn) = > 100 µM
3) O=C(O)c1cc([N+](=O)[O-])cc2c(=O)c3cnccc3[nH]c12 = > 100 µM
4) Cn1c2ccccc2n2c(N=O)c(-c3ccccc3)nc12 = > 100 µM
5) C=C(C)C1=CCC[C@]2(C1)N=C(OC)[C@@H](C(C)C)N=C2OC = > 100 µM
6) Cc1cc(O)c(C(C)C)cc1S(=O)(=O)O (tested in a mixture with another compound) = 1.65 µM
7) Cc1ccc2c(c1)[nH]c(=S)n2/C=C1\C(=O)Oc2ccccc2C1=O = > 100 µM
8) CC(=O)OCC1OC(n2cnc(C(N)=S)c2N)C(OC(C)=O)C1OC(C)=O (stereo not drawn) = > 100 µM
9) COc1cc(/C=C/C(=O)c2cccc(Nc3nc(Nc4ccccc4)nc(Nc4ccccc4)n3)c2)cc(OC)c1OC = > 100 µM
10) CCOP(=O)(OCC)/C(C#N)=C/c1ncc[nH]1 = > 100 µM
11) CC(=O)N(C)SCC(NC(=O)C(Cc1ccccc1)NC(=O)OCc1ccccc1)C(=O)NC(Cc1ccccc1)C(=O)NC(Cc1cn(C=O)c2ccccc12)C(=O)NC(CCCCNC(=O)OCc1ccccc1)C(=O)NC(C(=O)NC(CSN(C)C(C)=O)C(=O)NC(C(N)=O)C(C)OCc1ccccc1)C(C)OCc1ccccc1 (stereo not drawn) (Cbz-F[X31]FW(For)K(Cbz)T(Bn)[X31]T(Bn)-NH2; configuration not given here) = 30.5 µM
12) Clc1ccc(NCc2nnc(CCCCCCCCc3nnc(CNc4ccc(Cl)cc4)o3)o2)cc1 = > 100 µM
13) O=C1c2ccccc2C(O)(O)C1(O)C1(O)C(=O)c2ccccc2C1(O)O (stereo not drawn) = > 100 µM
14) CCSc1[nH]c(NC(=S)NC(=O)c2ccccc2Cl)c(C(N)=O)c1C(N)=O = > 10 µM
15) O=c1c2c(oc3ccccc13)-c1ccccc1OC2 = 47.4 µM
16) C=C(C)C(=O)Nc1ccc(NC(C)C)cc1 = > 100 µM
17) COc1ccc2c(c1)c(=O)oc1cc(OC/C(C)=N\O)ccc12 = > 100 µM
18) CN(O)c1nc(N(C)O)nc(N2CCOCC2)n1 = > 100 µM

The measured values listed here are drawn from PubChem BioAssay (NCI).
